Biological target: glutathione S-transferase (GST)-fused full-length human Syk protein (Homo sapiens, UniProt P43405)
Construct: (GST)-fused full-length human Syk protein; GST (glutathione S-transferase); purchased Carna Biosciences
Assay: Syk enzyme assay
Assay type: biochemical
Conditions: Syk enzyme assay, Test Example 1; read-out: IC50 of Syk-inhibitory activity
pIC50: −log10 of the molar value.
Measured Endpoint: pIC50

Some solved entries appear below for comparison.
Molecule	Measured Endpoint	Result
COc1ccc(-c2cncc(Nc3nc(N[C@@H]4CCCC[C@@H]4N)c(F)cc3C(N)=O)c2)cn1 (relative stereo)	pIC50	7.30 to 8.00
NC(=O)c1cc(F)c(N[C@@H]2CCCC[C@@H]2N)nc1Nc1cncc(-c2cccc(Cl)c2)c1 (relative stereo)	pIC50	> 8.00
CCn1ncc2c(Nc3nc(N[C@H](CC(C)C)[C@H](C)N)c(F)cc3C(N)=O)cccc21	pIC50	> 8.00
CCC[C@@H](Nc1nc(Nc2cccc3cccnc23)c(C(N)=O)cc1F)[C@H](C)N	pIC50	7.30 to 8.00

Below are some molecules; for each one, tell me its pIC50.
1. NC(=O)c1cc(F)c(NC2CCCCC2N)nc1Nc1ccnc(OCc2ccccc2)c1 (stereo not shown)
2. CC[C@H](N)[C@@H](CC(C)C)Nc1nc(Nc2ccc3ncccc3c2)c(C(N)=O)cc1F
3. CC[C@H](N)[C@@H](C)Nc1nc(Nc2ccc3c(cnn3CCOC)c2)c(C(N)=O)cc1F

[A]
["7.30 to 8.00", "> 8.00", "> 8.00"]

---

Target: glutathione S-transferase (GST)-fused full-length human Syk protein (Homo sapiens)
Construct: (GST)-fused full-length human Syk protein; GST (glutathione S-transferase); purchased Carna Biosciences
Test: Syk enzyme assay
Assay type: biochemical
Details: Syk enzyme assay, Test Example 1; read-out: IC50 of Syk-inhibitory activity
Experimental: A glutathione S-transferase (GST)-fused full-length human Syk protein (Carna Biosciences), which had been generated using a Baculovirus expression system, was used in the Syk enzyme assay. 15 μl of a reaction solution (1.2 ng Syk, 20 mM HEPES, 10 mM MgCl2, 50 mM NaCl, 2 mM DTT, 0.05% BSA, pH 7.0) containing a Syk protein and a predetermined concentration of a test compound was shaken for 2 minutes, and it was then left at rest at room temperature for 13 minutes. […]
pIC50: −log10 of the molar value.
Measured Endpoint: pIC50

Some solved entries appear below for comparison.
Compound	pIC50
CC(C)COc1ccc2cc(Nc3nc(NC4CCCCC4N)c(F)cc3C(N)=O)ccc2n1 (stereo not drawn)	7.30 to 8.00
NC(=O)c1cc(F)c(N[C@@H]2CCCC[C@@H]2N)nc1Nc1cc([N+](=O)[O-])c2[nH]ccc2c1 (relative stereo)	> 8.00
NC(=O)c1cc(F)c(NC2CCCCC2N)nc1Nc1ccc(C2CC2)nc1 (stereo not drawn)	> 8.00
CC[C@@H](Nc1nc(Nc2ccc3c(c2)c(-n2cccn2)nn3C)c(C(N)=O)cc1F)[C@H](C)N	> 8.00
C#CCNc1nc(Nc2cc(OC)cc(OC)c2)c(C(N)=O)cc1F	6.00 to 7.00
CCCC[C@@H](Nc1nc(Nc2cc(OC)nc(OC)c2)c(C(N)=O)cc1F)[C@H](C)N	> 8.00
NC(=O)c1cc(F)c(N[C@@H]2CCCC[C@@H]2N)nc1Nc1ccn2ccnc2c1 (relative stereo)	7.30 to 8.00
NC(=O)c1cc(F)c(NC2CCCCC2N)nc1Nc1ccnc(N2CCOCC2)c1F (stereo not drawn)	7.30 to 8.00
NC(=O)c1cc(F)c(N[C@@H]2CCCC[C@@H]2N)nc1Nc1cncc(Oc2ccccc2)c1	7.00 to 7.30
NC(=O)c1cc(F)c(N[C@@H]2CCCC[C@@H]2N)nc1Nc1cncc(-n2ccnc2)c1 (relative stereo)	7.30 to 8.00

Below are some compounds; for each one, tell me its pIC50.
1. CC(C)C[C@@H](Nc1nc(Nc2ccc3c(c2)c(F)nn3C)c(C(N)=O)cc1F)[C@H](C)N
2. NC(=O)c1cc(F)c(NC2CCCCC2N)nc1Nc1ccc2ncccc2c1 (stereo not drawn)
3. COc1cc(Nc2nc(N3CCC(N)C3)c(F)cc2C(N)=O)cc(OC)c1 (stereo not drawn)
4. Cc1cc(Nc2nc(N[C@@H]3CCCC[C@@H]3N)c(F)cc2C(N)=O)cs1 (relative stereo)
5. CCCC[C@@H](Nc1nc(Nc2ccc3c(cnn3C)c2)c(C(N)=O)cc1F)[C@H](C)N

[A]
> 8.00
> 8.00
6.00 to 7.00
> 8.00
> 8.00
